Where these numbers come from: the Kinase Knowledgebase extract (Sharma et al. 2016)

target-or-test-system: UniProt P24941
assay-details: Enzyme Assay
reported-conditions: concentration not given here
Classification field: T = inhibition at or over 40%; F = inhibition under 40%.

Request: Hello, I need to know if Nc1nc(NC2CCN(C(=O)Cc3cc(F)cc(F)c3F)CC2)sc1C(=O)c1c(F)cccc1F has measured inhibition not below 40%. Thanks!
Response: T

Request: Field entry: Nc1nc(NC2CCN(S(=O)(=O)c3ccc(Oc4ccncc4)cc3)CC2)sc1C(=O)c1c(F)cccc1F
Response: F

Request: Field entry: Cc1ccc(C(C)C)c(C(=O)N2CCC(Nc3nc(N)c(C(=O)c4c(F)cccc4F)s3)CC2)c1O
Response: F

Request: Field entry: CCCCCC(=O)N1CCC(Nc2nc(N)c(C(=O)c3c(F)cccc3F)s2)CC1
Response: F

Request: Field entry: CC1CCCCC1C(=O)N1CCC(Nc2nc(N)c(C(=O)c3c(F)cccc3F)s2)CC1 (configuration not stated)
Response: T

Request: Field entry: Nc1nc(NC2CCN(C(=O)/C=C/c3ccc4c(c3)CCC4)CC2)sc1C(=O)c1c(F)cccc1F
Response: T

Request: Field entry: CC(=O)SC(C)CC(=O)N1CCC(Nc2nc(N)c(C(=O)c3c(F)cccc3F)s2)CC1 (configuration not stated)
Response: T

Request: Field entry: Nc1nc(NC2CCN(C(=O)/C=C/c3ccccc3)CC2)sc1C(=O)c1c(F)cccc1F
Response: T

Request: Field entry: Nc1nc(NC2CCN(C(=O)CCOc3ccc(F)cc3)CC2)sc1C(=O)c1c(F)cccc1F
Response: T

Request: Field entry: CN(C)c1ccc(NC(=O)N2CCC(Nc3nc(N)c(C(=O)c4c(F)cccc4F)s3)CC2)cc1
Response: F

Request: Field entry: COc1ccc(C(=O)N2CCC(Nc3nc(N)c(C(=O)c4c(F)cccc4F)s3)CC2)c(Cl)c1
Response: T

Request: Field entry: C=CC(C)C(=O)N1CCC(Nc2nc(N)c(C(=O)c3c(F)cccc3F)s2)CC1 (configuration not stated)
Response: F

* * *

target-or-test-system: CDK2 (human) (UniProt P24941)
assay-details: Enzyme Assay
reported-conditions: concentration not given here
property-name: inhibition (%)
Write it as a number; the unit % goes unstated.

Request: Name the reported inhibition value associated with the compound CN(C)C(=O)N1CCC(Nc2nc(N)c(C(=O)c3c(F)cccc3F)s2)CC1
Response: -43

Request: Field entry: Nc1nc(NC2CCN(C(=O)CCCS)CC2)sc1C(=O)c1c(F)cccc1F
Response: 23

Request: Field entry: CC(=O)CCCC(=O)N1CCC(Nc2nc(N)c(C(=O)c3c(F)cccc3F)s2)CC1
Response: 68

Request: Field entry: CS(=O)(=O)CC(=O)N1CCC(Nc2nc(N)c(C(=O)c3c(F)cccc3F)s2)CC1
Response: 45

Request: Field entry: CC(=O)SC[C@@H](C)C(=O)N1CCC(Nc2nc(N)c(C(=O)c3c(F)cccc3F)s2)CC1
Response: 46

Request: Field entry: COc1cc(C)ccc1C(=O)N1CCC(Nc2nc(N)c(C(=O)c3c(F)cccc3F)s2)CC1
Response: 59

Request: Field entry: COCCOC(=O)N1CCC(Nc2nc(N)c(C(=O)c3c(F)cccc3F)s2)CC1
Response: -11

Request: Field entry: CC(C)C(O)C(=O)N1CCC(Nc2nc(N)c(C(=O)c3c(F)cccc3F)s2)CC1 (stereo not drawn)
Response: 27

Request: Field entry: Nc1nc(NC2CCN(C(=O)c3ccc[n+]([O-])c3)CC2)sc1C(=O)c1c(F)cccc1F
Response: 46

Request: Field entry: C[C@H](O)C(=O)N1CCC(Nc2nc(N)c(C(=O)c3c(F)cccc3F)s2)CC1
Response: 67

Request: Field entry: C=CCC(C)(C)C(=O)N1CCC(Nc2nc(N)c(C(=O)c3c(F)cccc3F)s2)CC1
Response: 14

Request: Field entry: Nc1nc(NC2CCN(C(=O)CCC(=O)c3ccccc3)CC2)sc1C(=O)c1c(F)cccc1F
Response: 5

Request: Field entry: CC(O)CC(=O)N1CCC(Nc2nc(N)c(C(=O)c3c(F)cccc3F)s2)CC1 (stereo not drawn)
Response: 38

Request: Field entry: Nc1nc(NC2CCN(C(=O)Cc3ccc(O)c(F)c3)CC2)sc1C(=O)c1c(F)cccc1F
Response: 59

Request: Field entry: Nc1nc(NC2CCN(C(=O)c3c(F)cccc3F)CC2)sc1C(=O)c1c(F)cccc1F
Response: -20

Request: Field entry: Cc1cc(C(=O)N2CCC(Nc3nc(N)c(C(=O)c4c(F)cccc4F)s3)CC2)nn1C
Response: 40

Request: Field entry: Nc1nc(NC2CCN(C(=O)c3ccc(C=O)o3)CC2)sc1C(=O)c1c(F)cccc1F
Response: 39

Request: Field entry: Nc1nc(NC2CCN(C(=O)c3ccc(Cl)cc3F)CC2)sc1C(=O)c1c(F)cccc1F
Response: 68

Request: Field entry: CC(=O)N1CCC(C(=O)N2CCC(Nc3nc(N)c(C(=O)c4c(F)cccc4F)s3)CC2)CC1
Response: 36

Request: Field entry: CN1CCC[C@H]1C(=O)N1CCC(Nc2nc(N)c(C(=O)c3c(F)cccc3F)s2)CC1
Response: 39

Request: Field entry: CC(C)(C(=O)N1CCC(Nc2nc(N)c(C(=O)c3c(F)cccc3F)s2)CC1)c1ccccc1
Response: 33

Request: Field entry: CC1CCC(C(=O)N2CCC(Nc3nc(N)c(C(=O)c4c(F)cccc4F)s3)CC2)CC1 (stereo not drawn)
Response: 59

Request: Field entry: COc1ccc(C(=O)N2CCC(Nc3nc(N)c(C(=O)c4c(F)cccc4F)s3)CC2)c(OC)n1
Response: 51

Request: Field entry: CC(=O)CCC(=O)N1CCC(Nc2nc(N)c(C(=O)c3c(F)cccc3F)s2)CC1
Response: 15

Request: Field entry: N#C/C(=C\c1cccc(O)c1)C(=O)N1CCC(Nc2nc(N)c(C(=O)c3c(F)cccc3F)s2)CC1
Response: 84

Request: Field entry: Cc1cccc(Cl)c1C(=O)N1CCC(Nc2nc(N)c(C(=O)c3c(F)cccc3F)s2)CC1
Response: 47

Request: Field entry: Nc1nc(NC2CCN(C(=O)c3ccc4ccccc4c3)CC2)sc1C(=O)c1c(F)cccc1F
Response: 38

Request: Field entry: CN(CC(=O)N1CCC(Nc2nc(N)c(C(=O)c3c(F)cccc3F)s2)CC1)C(=O)OC(C)(C)C
Response: 12

Request: Field entry: CSc1ncccc1C(=O)N1CCC(Nc2nc(N)c(C(=O)c3c(F)cccc3F)s2)CC1
Response: 33

Request: Field entry: CCSCC(=O)N1CCC(Nc2nc(N)c(C(=O)c3c(F)cccc3F)s2)CC1
Response: 63

Request: Field entry: Nc1nc(NC2CCN(C(=O)C3(c4ccccc4)CC3)CC2)sc1C(=O)c1c(F)cccc1F
Response: -2

Request: Field entry: CO[C@H](C(=O)N1CCC(Nc2nc(N)c(C(=O)c3c(F)cccc3F)s2)CC1)c1ccccc1
Response: 50

Request: Field entry: Cc1ccc(OCC(=O)N2CCC(Nc3nc(N)c(C(=O)c4c(F)cccc4F)s3)CC2)c(C)c1
Response: 51
